Test system: Pseudomonas aeruginosa ATCC 10145
Experiment: Antimicrobial activity, MIC, modified microbroth dilution
Format: cell-based
Conditions: ATCC10145, P. aeruginosa (10145), 18 hours incubation, read-out: MIC (expressed as MIC50) P. Aeruginosa
measured-attribute: MIC50 (mg/L)

* N=C(N)NCCCCC(=O)Nc1cc(C(F)(F)F)cc(NC(=O)Nc2cccc(Oc3cc(NC(=N)N)cc(C(F)(F)F)c3)c2)c1O[C@@H]1CCNC1 | 6.25
* N=C(N)NCCCCC(=O)Nc1cc(C(F)(F)F)cc(NC(=O)Nc2ccc(Oc3ccc(NCCN)c(C(F)(F)F)c3)c(CCCN)c2)c1O[C@@H]1CCNC1 | 12.5
* N=C(N)NCCCCC(=O)Nc1cc(C(F)(F)F)cc(NC(=O)Nc2ccc(Oc3cc(NCCN)cc(C(F)(F)F)c3)cc2)c1O[C@@H]1CCNC1 | 6.25
* N=C(N)NCCCCC(=O)Nc1cc(C(F)(F)F)cc(NC(=O)Nc2ccc(Oc3cc([N+](=O)[O-])cc(C(F)(F)F)c3)cc2)c1SCCN | 50
* N=C(N)NCCCCC(=O)Nc1cc(C(F)(F)F)cc(NC(=O)Nc2ccc(Oc3ccc(NCCN)c(C(F)(F)F)c3)c(CCCN)c2)c1SCCN | 6.25
* N=C(N)NCCCCC(=O)Nc1cc(C(F)(F)F)cc(NC(=O)Nc2ccc(Oc3cc(N)cc(C(F)(F)F)c3)cc2)c1O[C@@H]1CCNC1 | 12.5
* N=C(N)NCCCC(=O)Nc1cc(C(F)(F)F)cc(NC(=O)Nc2ccc3nc(-c4ccc(NCCCN)cc4)sc3c2)c1SCCN | 6.25
* N=C(N)NCCCCC(=O)Nc1cc(C(F)(F)F)cc(NC(=O)Nc2ccc(Oc3cc(NCCCN)cc(C(F)(F)F)c3)cc2)c1SCCN | 3.13
* NCCCc1cc(NC(=O)Nc2ccc(SCCN)c(C(F)(F)F)c2)ccc1Oc1ccc(NCCN)c(C(F)(F)F)c1 | 3.13
* NCCCc1cc(NC(=O)Nc2cc(C(F)(F)F)c(SCCN)cc2SCCN)ccc1Oc1ccc(NCCN)c(C(F)(F)F)c1 | 3.13
* N=C(N)NCCCCC(=O)Nc1cc(C(F)(F)F)cc(NC(=O)Nc2ccc3nc(NC(=O)Nc4cc(C(F)(F)F)cc(NC(=O)CCCCNC(=N)N)c4O[C@@H]4CCNC4)sc3c2)c1O[C@@H]1CCNC1 | 25
* N=C(N)NCCCCC(=O)Nc1cc(C(F)(F)F)cc(NC(=O)Nc2cccc(Oc3cc(NCCCN)cc(C(F)(F)F)c3)c2)c1SCCN | 6.25
* N=C(N)NCCCCC(=O)Nc1cc(C(F)(F)F)cc(NC(=O)Nc2ccc(Oc3cc(N)cc(C(F)(F)F)c3)cc2)c1SCCN | 12.5
* N=C(N)NCCCCC(=O)Nc1cc(C(F)(F)F)cc(NC(=O)Nc2ccc(Oc3cc(NCCN)cc(C(F)(F)F)c3)cc2)c1SCCN | 3.13
* N=C(N)NCCCCC(=O)Nc1cc(C(F)(F)F)cc(NC(=O)Nc2cccc(Oc3cc(NC(=N)N)cc(C(F)(F)F)c3)c2)c1SCCN | 6.25
* N=C(N)NCCCCC(=O)Nc1cc(C(F)(F)F)cc(NC(=O)Nc2ccc3nc(NC(=O)Nc4cc(C(F)(F)F)cc(NC(=O)CCCCNC(=N)N)c4SCCN)sc3c2)c1SCCN | 12.5
* N=C(N)NCCCCC(=O)Nc1cc(C(F)(F)F)cc(NC(=O)Nc2cccc(Oc3cc(NCCCN)cc(C(F)(F)F)c3)c2)c1O[C@@H]1CCNC1 | 6.25
